Each recorded value in this set is attributed to patent US20260232812A1.

# ASSAY SYSTEM: BRD4 (Homo sapiens, UniProt O60885)
# Construct: HEK293 containing a HiBit insertion for BRD4; endogenous in cells; host or cells: HEK293 with a HiBiT insertion for BRD4
# TEST SUMMARY: Assay 1 - Degradation of HiBit-BRD4 in HEK293
# Format: cell-based
# CONDITION NOTES: HiBit-BRD4 in HEK293, 6 h treatment
Listed molecules paired with reported Dmax

// known answers, use as guide
MOLECULE: CC(=O)N1c2ccc(-c3ccc(C(=O)NCCOCCOCCOCCOCCOCCNC(=O)C4CC(c5ccc(C(F)(F)F)cc5)CN(C(=O)/C(C#N)=C/C(C)(C)C)C4)cc3)cc2[C@H](Nc2ccc(Cl)cc2)C[C@@H]1C (stereo partly shown) [Example 13ak]
Dmax: ≥ 70%

MOLECULE: CC(=O)N1c2ccc(-c3ccc(C(=O)NCCOCCOCCOCCOCCOCCNC(=O)[C@@H]4CN(C(=O)/C(C#N)=C/C(C)(C)CN5CCOCC5)C[C@H]4CC(C)C)cc3)cc2[C@H](Nc2ccc(Cl)cc2)C[C@@H]1C [Example 15o]
Dmax: 50 to 70%

MOLECULE: CC(=O)N1c2ccc(-c3ccc(C(=O)NCCOCCOCCOCCOCCOCCNC(=O)[C@@H]4CN(C(=O)/C(C#N)=C/c5ccc(F)cc5)C[C@H]4c4ccc(F)cc4)cc3)cc2[C@H](Nc2ccc(Cl)cc2)C[C@@H]1C [Example 15ah]
Dmax: 30 to 50%

MOLECULE: CC(=O)N1c2ccc(-c3ccc(C(=O)NCCOCCOCCOCCOCCOCCNC(=O)C4CC(C5CCCCC5)CN(C(=O)/C(C#N)=C/C(C)(C)C)C4)cc3)cc2[C@H](Nc2ccc(Cl)cc2)C[C@@H]1C (stereo partly shown) [Example 13q]
Dmax: 50 to 70%

Enquiry: // output Dmax; input CC(=O)N1c2ccc(-c3ccc(C(=O)NCCOCCOCCOCCOCCOCCNC(=O)[C@@H]4CN(C(=O)/C(C#N)=C/c5ccn(C)n5)C[C@H]4c4ccccc4)cc3)cc2[C@H](Nc2ccc(Cl)cc2)C[C@@H]1C [Example 15w] ; system BRD4 (Homo sapiens, UniProt O60885)
Return: 30 to 50%

Enquiry: // output Dmax; input CC(=O)N1c2ccc(-c3ccc(C(=O)NCCOCCOCCOCCOCCOCCNC(=O)[C@@H]4CN(C(=O)/C(C#N)=C/c5ccn(C)n5)C[C@H]4C4CCCCC4)cc3)cc2[C@H](Nc2ccc(Cl)cc2)C[C@@H]1C [Example 15r] ; system BRD4 (Homo sapiens, UniProt O60885)
Return: 50 to 70%

Enquiry: // output Dmax; input CC(=O)N1c2ccc(-c3ccc(C(=O)NCCOCCOCCOCCOCCOCCNC(=O)C4CC(C5CC5)CN(C(=O)/C(C#N)=C/c5ccc(F)cc5)C4)cc3)cc2[C@H](Nc2ccc(Cl)cc2)C[C@@H]1C (stereo partly shown) [Example 13x] ; system BRD4 (Homo sapiens, UniProt O60885)
Return: ≥ 70%
